Experiment: Plasma concentrations (PK), Example 1
Assay type: in vivo, human
Details: human, plasma; oral; read-out: Terminal elimination half-life
observation.type: half-life

Entry CC(=O)NCCCC[C@@H]1NC(=O)[C@H](Cc2c[nH]c3c(C)cccc23)NC(=O)[C@H]([C@@H](C)O)NC(=O)[C@H](CC(N)=O)NC(=O)[C@@H](NC(C)=O)C(C)(C)SSC(C)(C)[C@@H](C(=O)N[C@@H](Cc2ccc(OCCN)cc2)C(=O)N[C@@H](Cc2ccc3ccccc3c2)C(=O)NC2(C(=O)N[C@@H](CCC(=O)O)C(=O)N[C@@H](CC(N)=O)C(=O)N[C@@H](Cc3cccnc3)C(=O)N(C)CC(N)=O)CCOCC2)NC1=O [IL-23 receptor antagonist peptide] ; half-life = 9 to 12 h

====

Test: Plasma concentrations (PK), Example 1
Assay type: in vivo, human
Details: human, plasma, oral, 25 mg, 25 mg BID; Week 8; Intermediate; read-out: Plasma concentration, Geometric Mean
observation.type: level at 1344 h (ng/mL)
One number for each entry, in ng/mL.

The molecule identified as CC(=O)NCCCC[C@@H]1NC(=O)[C@H](Cc2c[nH]c3c(C)cccc23)NC(=O)[C@H]([C@@H](C)O)NC(=O)[C@H](CC(N)=O)NC(=O)[C@@H](NC(C)=O)C(C)(C)SSC(C)(C)[C@@H](C(=O)N[C@@H](Cc2ccc(OCCN)cc2)C(=O)N[C@@H](Cc2ccc3ccccc3c2)C(=O)NC2(C(=O)N[C@@H](CCC(=O)O)C(=O)N[C@@H](CC(N)=O)C(=O)N[C@@H](Cc3cccnc3)C(=O)N(C)CC(N)=O)CCOCC2)NC1=O [IL-23 receptor antagonist peptide] registered its level at 1344 h at 0.092

====

Assay: Plasma concentrations (PK), Example 1
Format: in vivo, human
Conditions: human, plasma, oral, 100 mg, weight >90 kg, 100 mg BID, Week 12, Intermediate; read-out: Plasma concentration, Geometric Mean
observation.type: level at 2016 h (ng/mL)
Give bare numbers, in ng/mL.

Consider CC(=O)NCCCC[C@@H]1NC(=O)[C@H](Cc2c[nH]c3c(C)cccc23)NC(=O)[C@H]([C@@H](C)O)NC(=O)[C@H](CC(N)=O)NC(=O)[C@@H](NC(C)=O)C(C)(C)SSC(C)(C)[C@@H](C(=O)N[C@@H](Cc2ccc(OCCN)cc2)C(=O)N[C@@H](Cc2ccc3ccccc3c2)C(=O)NC2(C(=O)N[C@@H](CCC(=O)O)C(=O)N[C@@H](CC(N)=O)C(=O)N[C@@H](Cc3cccnc3)C(=O)N(C)CC(N)=O)CCOCC2)NC1=O [IL-23 receptor antagonist peptide] . Its measured level at 2016 h is 0.601

====

Test: Plasma concentrations (PK), Example 1
Assay type: in vivo, human
Details: human, plasma, oral, 50 mg, 50 mg QD; Week 8; Trough; read-out: Plasma concentration, Median
observation.type: level at 1344 h (ng/mL)
Numbers only, in ng/mL.

Measured level at 1344 h of CC(=O)NCCCC[C@@H]1NC(=O)[C@H](Cc2c[nH]c3c(C)cccc23)NC(=O)[C@H]([C@@H](C)O)NC(=O)[C@H](CC(N)=O)NC(=O)[C@@H](NC(C)=O)C(C)(C)SSC(C)(C)[C@@H](C(=O)N[C@@H](Cc2ccc(OCCN)cc2)C(=O)N[C@@H](Cc2ccc3ccccc3c2)C(=O)NC2(C(=O)N[C@@H](CCC(=O)O)C(=O)N[C@@H](CC(N)=O)C(=O)N[C@@H](Cc3cccnc3)C(=O)N(C)CC(N)=O)CCOCC2)NC1=O [IL-23 receptor antagonist peptide] : 0.112
